Measured TCF/Wnt firefly luciferase reporter signal of individual entries
# Tested on: DLD1
# TEST DETAILS: TCF/Wnt firefly luciferase reporter signal relative to plate median (fraction of plate median); higher = higher Wnt reporter signal
# CONDITION DETAILS: 5 µM; treatment time 24 h; reporter: 7TFP
Please give only the number in your answer, with no unit.

Worked examples, 7 compounds total:
NC1(C(=O)O)CC1 : 0.885
COc1c(O)cc2oc3cc(O)c(CC=C(C)C)c(O)c3c(=O)c2c1CC=C(C)C : 1.04
CC(=O)O[C@@H]1CC2C(C)(C)[C@H](O)CC[C@]2(C)C2CC[C@@]3(C)[C@H](c4ccoc4)OC(=O)C4OC43[C@@]21C (stereo partly drawn) [alpha-DIHYDROGEDUNOL] : 1.02
COC(=O)c1c(OC)cc2c(c1C)Oc1c(Cl)c(O)c(Cl)c(C)c1C(=O)O2 : 1.05
COc1ccc(-c2oc3cc(O[C@@H]4O[C@H](CO)[C@@H](O)[C@H](O)[C@H]4O)c(OC)c(O)c3c(=O)c2OC)cc1O : 1.05
O=C(CCCN1CCN(c2ccccn2)CC1)c1ccc(F)cc1 : 0.985
Oc1cccc(O)c1 : 0.873

For the next question, use this compound.
For the compound COc1ccc(C[C@H](N)C(=O)N[C@H]2[C@@H](O)[C@H](n3cnc4c(N(C)C)ncnc43)O[C@@H]2CO)cc1 , report TCF/Wnt firefly luciferase reporter signal.
0.999
